# target.system: BRAF^V600E protein (Homo sapiens, UniProt P15056, V600E)
# Sequence (P15056 whole entry V600E): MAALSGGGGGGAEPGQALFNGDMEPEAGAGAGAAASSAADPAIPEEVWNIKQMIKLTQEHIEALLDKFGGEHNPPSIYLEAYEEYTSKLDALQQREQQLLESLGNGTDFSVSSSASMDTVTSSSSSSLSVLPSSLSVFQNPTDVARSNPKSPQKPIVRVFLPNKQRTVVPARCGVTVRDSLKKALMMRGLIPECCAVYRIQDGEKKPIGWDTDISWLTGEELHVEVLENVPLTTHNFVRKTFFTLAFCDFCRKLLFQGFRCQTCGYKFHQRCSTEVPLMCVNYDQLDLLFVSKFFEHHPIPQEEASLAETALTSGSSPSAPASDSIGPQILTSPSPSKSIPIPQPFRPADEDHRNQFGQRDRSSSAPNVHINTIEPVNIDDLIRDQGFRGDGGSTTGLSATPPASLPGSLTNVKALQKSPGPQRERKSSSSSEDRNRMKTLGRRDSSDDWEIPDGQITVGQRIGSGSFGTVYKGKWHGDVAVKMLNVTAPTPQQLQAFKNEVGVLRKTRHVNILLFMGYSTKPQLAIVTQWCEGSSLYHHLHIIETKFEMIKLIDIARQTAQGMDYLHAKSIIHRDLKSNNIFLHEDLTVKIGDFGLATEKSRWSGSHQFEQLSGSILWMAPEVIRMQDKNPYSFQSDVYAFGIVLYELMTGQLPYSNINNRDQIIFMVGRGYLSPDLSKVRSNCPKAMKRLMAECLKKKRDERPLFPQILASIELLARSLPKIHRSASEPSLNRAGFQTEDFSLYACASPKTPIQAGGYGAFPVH
# method: HiBiT cellular BRAF V600E degradation assay
# Type: cell-based
# measurement.context: A375.10 cells, 24 h incubation; Emax = amount of residual protein remaining in the cell after compound treatment
# Excerpt: DMEM no-phenol red medium supplemented with L-glutamine was purchased from (Corning). Fetal bovine serum (FBS) was purchased from Gibco (Grand Island, NY, USA). Nano-Glo® HiBiT Lytic Assay Buffer & Reagents were purchased from Promega (Madison, WI, USA). […] Prior to the assay, the A375.10 cell line is maintained in DMEM no-phenol red medium supplemented with 10% fetal bovine serum (FBS). […] Finally, HiBiT luminescence signal was acquired on EnVision™ Multilabel Reader (PerkinElmer, Santa Clara, CA, USA). […]
property.name: HiBit 24 h Emax

CCN(C)S(=O)(=O)Nc1ccc(F)c(C(=O)c2c[nH]c3ncc(-c4cnc(N5CCN(C(=O)CN6CCC(c7ccc(NC8CCC(=O)NC8=O)cn7)CC6)CC5)nc4)cc23)c1F (centres unmarked); 12%

Response field HiBit 24 h Emax (BRAF^V600E protein (Homo sapiens, UniProt P15056, V600E)) for item CCN(C)S(=O)(=O)Nc1ccc(F)c(C(=O)c2c[nH]c3ncc(-c4cnc(N5CCN(C(=O)NC6CCN(c7ccc(NC8CCC(=O)NC8=O)cc7F)CC6)CC5)nc4)cc23)c1F.O=C(O)C(F)(F)F (centres unmarked) : 8%

Response field HiBit 24 h Emax (BRAF^V600E protein (Homo sapiens, UniProt P15056, V600E)) for item CCN(C)S(=O)(=O)Nc1ccc(F)c(C(=O)c2c[nH]c3ncc(-c4ccc(N5CCN(C(=O)CN6CCC(c7ccc(O[C@H]8CCC(=O)NC8=O)cc7)CC6)CC5)nc4)cc23)c1F : 8.05%

Response field HiBit 24 h Emax (BRAF^V600E protein (Homo sapiens, UniProt P15056, V600E)) for item CCN(C)S(=O)(=O)Nc1ccc(F)c(C(=O)c2c[nH]c3ncc(-c4ccc(N5CCN(C(=O)CN6CCC(c7ccc(NC8CCC(=O)NC8=O)cc7)CC6)CC5)cc4)cc23)c1F (centres unmarked) : 9.62%

Response field HiBit 24 h Emax (BRAF^V600E protein (Homo sapiens, UniProt P15056, V600E)) for item CCN(C)S(=O)(=O)Nc1ccc(F)c(C(=O)c2c[nH]c3ncc(-c4cnc(N5CCN(C(=O)CN6CCC(c7ccc(N(C)C8CCC(=O)NC8=O)cc7)CC6)CC5)nc4)cc23)c1F (centres unmarked) : 18.02%

Response field HiBit 24 h Emax (BRAF^V600E protein (Homo sapiens, UniProt P15056, V600E)) for item CCN(C)S(=O)(=O)Nc1ccc(F)c(C(=O)c2c[nH]c3ncc(-c4cnc(N5CCC(C(=O)N6CCC(c7ccc(NC8CCC(=O)NC8=O)cc7)CC6)CC5)nc4)cc23)c1F (centres unmarked) : 8%

Response field HiBit 24 h Emax (BRAF^V600E protein (Homo sapiens, UniProt P15056, V600E)) for item CCN(C)S(=O)(=O)Nc1ccc(F)c(C(=O)c2c[nH]c3ncc(-c4cnc(N5CCN(C(=O)CN6CC[C@H](c7ccc(NC8CCC(=O)NC8=O)cc7)C(F)(F)C6)CC5)nc4)cc23)c1F (some centres unmarked) : 6.57%
